Test: in vivo
Test Conditions: ICR, mouse, iv, 2 mg/kg
Attribute Measured: half-life (min)

molecule=COc1cc2sc(C(=O)C[C@H](C)C(=O)O)cc2c2ncoc12 data_value=103
molecule="COc1cc2sc(C(=O)CC(C)C(=O)O)cc2c2ncoc12 (centres unmarked)" data_value=90

----------
Test: in vivo
Test Conditions: ICR, mouse, iv, 2 mg/kg
Attribute Measured: clearance (mL/min/kg)

molecule=COc1cc2sc(C(=O)C[C@H](C)C(=O)O)cc2c2ncoc12 data_value=9.38
molecule="COc1cc2sc(C(=O)CC(C)C(=O)O)cc2c2ncoc12 (centres unmarked)" data_value=21.2
